# MIC listing for each entry below
system: Enterococcus faecalis; test: Antibacterial activity against Enterococcus faecalis after 24 hrs by agar dilution method; format: functional

[
  {
    "Compound": "CCn1cc(C(=O)O)c(=O)c2cc(F)c(N3CCNC(C)C3)c(F)c21 (stereo unspecified)",
    "Relation Symbol": "=",
    "MIC (µg/mL)": 25
  },
  {
    "Compound": "O=C(O)c1cn(C2CC2)c2c(F)c(OCc3ccccc3)c(F)cc2c1=O",
    "Relation Symbol": "=",
    "MIC (µg/mL)": 12.5
  },
  {
    "Compound": "O=C(O)c1cn(C2CC2)c2c(F)c(Oc3ccccc3)c(F)cc2c1=O",
    "Relation Symbol": "=",
    "MIC (µg/mL)": 12.5
  },
  {
    "Compound": "CCn1cc(C(=O)O)c(=O)c2cc(F)c(Sc3ccccc3)c(F)c21",
    "Relation Symbol": ">",
    "MIC (µg/mL)": 25
  },
  {
    "Compound": "CCn1cc(C(=O)O)c(=O)c2cc(F)c(OCc3ccccc3)c(F)c21",
    "Relation Symbol": ">",
    "MIC (µg/mL)": 25
  },
  {
    "Compound": "CCn1cc(C(=O)O)c(=O)c2cc(F)c(Oc3ccc(C)cc3)c(F)c21",
    "Relation Symbol": ">",
    "MIC (µg/mL)": 25
  }
]

* * *

test system: Staphylococcus aureus; experiment: Antibacterial activity against Staphylococcus aureus after 24 hrs by agar dilution method; format: functional
I'd appreciate it if you marked entries true when MIC is lower than 2 mg/L and false when it is not.

[
  {
    "Compound": "O=C(O)c1cn(C2CC2)c2c(F)c(Oc3ccccc3)c(F)cc2c1=O",
    "Class": "true"
  },
  {
    "Compound": "O=C(O)c1cn(C2CC2)c2c(F)c(OCc3ccccc3)c(F)cc2c1=O",
    "Class": "true"
  },
  {
    "Compound": "CCn1cc(C(=O)O)c(=O)c2cc(F)c(N3CCNC(C)C3)c(F)c21 (stereo unspecified)",
    "Class": "true"
  },
  {
    "Compound": "CCn1cc(C(=O)O)c(=O)c2cc(F)c(Sc3ccccc3)c(F)c21",
    "Class": "false"
  },
  {
    "Compound": "CCn1cc(C(=O)O)c(=O)c2cc(F)c(Oc3ccc(C)cc3)c(F)c21",
    "Class": "true"
  },
  {
    "Compound": "CCn1cc(C(=O)O)c(=O)c2cc(F)c(OCc3ccccc3)c(F)c21",
    "Class": "false"
  }
]

* * *

system: Staphylococcus; test: Antibacterial activity against Staphylococcus albus after 24 hrs by agar dilution method; type: functional

[
  {
    "Molecule": "CCn1cc(C(=O)O)c(=O)c2cc(F)c(N3CCNC(C)C3)c(F)c21 (stereo unspecified)",
    "Target Of Assay": "Staphylococcus",
    "Relation Symbol": "=",
    "MIC, µg/mL": 3.13
  },
  {
    "Molecule": "O=C(O)c1cn(C2CC2)c2c(F)c(Oc3ccccc3)c(F)cc2c1=O",
    "Target Of Assay": "Staphylococcus",
    "Relation Symbol": "=",
    "MIC, µg/mL": 1.56
  },
  {
    "Molecule": "O=C(O)c1cn(C2CC2)c2c(F)c(OCc3ccccc3)c(F)cc2c1=O",
    "Target Of Assay": "Staphylococcus",
    "Relation Symbol": "=",
    "MIC, µg/mL": 6.25
  },
  {
    "Molecule": "CCn1cc(C(=O)O)c(=O)c2cc(F)c(OCc3ccccc3)c(F)c21",
    "Target Of Assay": "Staphylococcus",
    "Relation Symbol": ">",
    "MIC, µg/mL": 25
  },
  {
    "Molecule": "CCn1cc(C(=O)O)c(=O)c2cc(F)c(Sc3ccccc3)c(F)c21",
    "Target Of Assay": "Staphylococcus",
    "Relation Symbol": ">",
    "MIC, µg/mL": 25
  },
  {
    "Molecule": "CCn1cc(C(=O)O)c(=O)c2cc(F)c(Oc3ccc(C)cc3)c(F)c21",
    "Target Of Assay": "Staphylococcus",
    "Relation Symbol": "=",
    "MIC, µg/mL": 12.5
  }
]

* * *

The reader will find reported MIC values listed item by item below.
system: Proteus vulgaris; test: Antibacterial activity against Proteus vulgaris after 24 hrs by agar dilution method; assay type: functional
Reported Endpoint: MIC (mg/L)

[
  {
    "Molecule": "CCn1cc(C(=O)O)c(=O)c2cc(F)c(Sc3ccccc3)c(F)c21",
    "Reported Endpoint": "MIC",
    "Relation Symbol": ">",
    "Reading": 25
  },
  {
    "Molecule": "O=C(O)c1cn(C2CC2)c2c(F)c(OCc3ccccc3)c(F)cc2c1=O",
    "Reported Endpoint": "MIC",
    "Relation Symbol": "=",
    "Reading": 6.25
  },
  {
    "Molecule": "O=C(O)c1cn(C2CC2)c2c(F)c(Oc3ccccc3)c(F)cc2c1=O",
    "Reported Endpoint": "MIC",
    "Relation Symbol": "=",
    "Reading": 6.25
  },
  {
    "Molecule": "CCn1cc(C(=O)O)c(=O)c2cc(F)c(OCc3ccccc3)c(F)c21",
    "Reported Endpoint": "MIC",
    "Relation Symbol": ">",
    "Reading": 25
  },
  {
    "Molecule": "CCn1cc(C(=O)O)c(=O)c2cc(F)c(Oc3ccc(C)cc3)c(F)c21",
    "Reported Endpoint": "MIC",
    "Relation Symbol": ">",
    "Reading": 25
  },
  {
    "Molecule": "CCn1cc(C(=O)O)c(=O)c2cc(F)c(N3CCNC(C)C3)c(F)c21 (stereo unspecified)",
    "Reported Endpoint": "MIC",
    "Relation Symbol": "=",
    "Reading": 0.78
  }
]

* * *

MIC: recorded values
tested on: Shigella flexneri; assay: Antibacterial activity against Shigella flexneri after 24 hrs by agar dilution method; type: functional

[
  {
    "Molecule": "O=C(O)c1cn(C2CC2)c2c(F)c(Oc3ccccc3)c(F)cc2c1=O",
    "MIC": "> 25 µg/mL"
  },
  {
    "Molecule": "CCn1cc(C(=O)O)c(=O)c2cc(F)c(Sc3ccccc3)c(F)c21",
    "MIC": "> 25 µg/mL"
  },
  {
    "Molecule": "CCn1cc(C(=O)O)c(=O)c2cc(F)c(N3CCNC(C)C3)c(F)c21 (stereo unspecified) [LOMEFLOXACIN]",
    "MIC": "0.78 µg/mL"
  },
  {
    "Molecule": "CCn1cc(C(=O)O)c(=O)c2cc(F)c(OCc3ccccc3)c(F)c21",
    "MIC": "> 25 µg/mL"
  },
  {
    "Molecule": "O=C(O)c1cn(C2CC2)c2c(F)c(OCc3ccccc3)c(F)cc2c1=O",
    "MIC": "> 25 µg/mL"
  },
  {
    "Molecule": "CCn1cc(C(=O)O)c(=O)c2cc(F)c(Oc3ccc(C)cc3)c(F)c21",
    "MIC": "> 25 µg/mL"
  }
]

Data credit: ChEMBL document CHEMBL1141026
